Tested on: anaplastic large cell lymphoma cells (Karpas299)
experiment: In vitro potency (CellTiter-Glo, 96 h) on Karpas299
Type: cell-based
measurement_parameters: Homo sapiens, KARPAS-299, 96 h, CPT free drugs; CellTiter-Glo after 96 h exposure; read-out: Karpas299 IC50
assay_endpoint: IC50 (nM)

1. C=Cc1ccc2nc3c(c(CN)c2c1)Cn1c-3cc2c(c1=O)COC(=O)[C@]2(O)CC ... 8
2. CC[C@@]1(O)C(=O)OCc2c1cc1n(c2=O)Cc2c-1nc1cc(F)c(OC)c(Br)c1c2CN ... 7
3. CC[C@@]1(O)C(=O)OCc2c1cc1n(c2=O)Cc2c-1nc1cc(F)c(C)c(-c3ccccc3)c1c2CN ... 9
4. CC[C@@]1(O)C(=O)OCc2c1cc1n(c2=O)Cc2c-1nc1cc3c(cc1c2CN)C(C)CO3 (stereo partly shown) ... 14
5. CC[C@@]1(O)C(=O)OCc2c1cc1n(c2=O)Cc2c-1nc1cc3c(cc1c2CN)CCS3 ... 29
6. C=C(C)c1ccc2nc3c(c(CN)c2c1)Cn1c-3cc2c(c1=O)COC(=O)[C@]2(O)CC [Compound 33a] ... 28
7. CC[C@@]1(O)C(=O)OCc2c1cc1n(c2=O)Cc2c-1nc1cc(F)c(SC)cc1c2CN ... 38
